Just for reference, PubChem BioAssay AID485364 is where these values come from.

measured-target: Schistosoma mansoni thioredoxin glutathione reductase (TGR) (UniProt Q962Y6)
assay-procedure: qHTS Assay for the Inhibitors of Schistosoma Mansoni Peroxiredoxins; further: nearly all actives have a fitted effect of over 60% in size; further: potency means the concentration at half of the fitted maximal effect
run-conditions: purified TGR, DTNB reduction, TNB absorbance 405 nm; series mostly up to 114 µM
The campaign covered roughly 360,000 compounds. About 11,000 (3.1%) were called active. Not shown: some 4% with an inconclusive outcome. The sample as a whole holds a higher share of actives than the screen did.
reported-property: Potency

# example entries with known answers
CCc1ccccc1N1CC(c2nc3ccccc3n2CCCCOc2ccccc2)CC1=O (configuration not stated) : inactive
O=C(CCCCCn1c(=O)[nH]c2ccccc2c1=O)NCCc1c[nH]c2ccccc12 : inactive
CCOC(=O)c1c(NC(=O)COc2cc(C)ccc2C(C)C)sc(C)c1C : inactive
CCOCCc1nn2c(=O)cc(COC(=O)CNC(=O)c3ccc(C(C)(C)C)cc3)nc2s1 : inactive

stdin: Given the entry Cc1ccc(-c2nc(CS(=O)(=O)CC(=O)NCc3ccc4c(c3)OCO4)c(C)o2)cc1 , report its measured Potency.
stdout: 20 µM (active)

stdin: Given the entry Cc1ccc2oc(=O)c3cnn(CC(=O)N4CCN(c5cccc(Cl)c5)CC4)c3c2c1 , report its measured Potency.
stdout: inactive

stdin: Given the entry CN=C1S/C(=C\c2c(OC)cc(OC)cc2OC)C(=O)N1C , report its measured Potency.
stdout: inactive

stdin: Given the entry CCOc1ccccc1NC(=O)CCc1nnc2ccc(NCc3ccco3)nn12 , report its measured Potency.
stdout: inactive

stdin: Given the entry COc1ccc(Cl)cc1NC(=O)CSc1nc(-c2cccs2)cc(C(F)(F)F)n1 , report its measured Potency.
stdout: inactive

stdin: Given the entry CCOC(=O)c1cccc(NC(=O)Cn2cnc3nc4c(cc3c2=O)CCCC4)c1 , report its measured Potency.
stdout: inactive

stdin: Given the entry CC1=C(C(=O)Nc2ccccc2Cl)C(c2cccs2)n2ncnc2N1 (configuration not stated) , report its measured Potency.
stdout: inactive

stdin: Given the entry CCOC(=O)c1c(C)[nH]c(CCC(=O)NCCCN2CCN(c3cccc(Cl)c3)CC2)c1C , report its measured Potency.
stdout: inactive

###

measured-target: Schistosoma mansoni thioredoxin glutathione reductase (TGR) (UniProt Q962Y6)
assay-procedure: qHTS Assay for the Inhibitors of Schistosoma Mansoni Peroxiredoxins; further: nearly all actives have a fitted effect of over 60% in size
run-conditions: purified TGR, DTNB reduction, TNB absorbance 405 nm; series mostly up to 114 µM
Screen size: about 360,000 compounds; about 11,000 (3.1%) were called active. Inconclusive results (about 4%) are left out. The call rests on the fitted dose curve; in most records, active means well fitted inhibition curve with a large enough effect; inconclusive means small, poorly fitted or top-dose-only effect; inactive means no such curve, though single readings can be large or run the other way. This excerpt belongs to a sample that is enriched for actives.
# valid calls are active, inactive; nothing else

stdin: Fill in: this test's call for CC1CCCN(CC(O)COCc2ccccc2)C1 (stereo not given) is ___
stdout: inactive

stdin: Fill in: this test's call for COc1cc(C)cc(CN2CCC(Cc3ccccc3)CC2)c1O is ___
stdout: inactive

stdin: Fill in: this test's call for O=C(Nc1ccccc1N1CCOCC1)c1ccncc1 is ___
stdout: inactive

stdin: Fill in: this test's call for CN(Cc1ccccc1)C(=O)c1cn(C)c2ccc(S(=O)(=O)N(C)C3CCCCC3)cc2c1=O is ___
stdout: inactive

stdin: Fill in: this test's call for CCCNC(=O)C1CCC(Cn2c(=O)c3sccc3n(Cc3ccccc3F)c2=O)CC1 (stereo not given) is ___
stdout: inactive

stdin: Fill in: this test's call for CCCc1nn2c(=O)cc(COC(=O)c3ccc(NC(=O)C(C)Oc4ccccc4)cc3)nc2s1 (stereo not given) is ___
stdout: inactive

stdin: Fill in: this test's call for O=C(NCCCO)C(=O)Nc1c2c(nn1-c1ccccc1)CSC2 is ___
stdout: inactive

stdin: Fill in: this test's call for Cc1cccc(CSc2ccc(-c3cccs3)nn2)c1 is ___
stdout: inactive

stdin: Fill in: this test's call for N#Cc1ccc(-c2cccs2)nc1SCc1ccc(Br)cc1 is ___
stdout: inactive

stdin: Fill in: this test's call for O=C(Cc1ccc(Cl)cc1)NC(=S)Nc1ccccc1O is ___
stdout: inactive

stdin: Fill in: this test's call for CCOc1ccccc1NS(=O)(=O)c1c[nH]c(C(=O)OC)c1 is ___
stdout: inactive

stdin: Fill in: this test's call for Cc1ccc2oc(=O)c3cnn(CC(=O)NCc4ccccc4Cl)c3c2c1 is ___
stdout: inactive

stdin: Fill in: this test's call for Cc1ccc(N2C(=O)CC(N3CCSCC3)C2=O)c(C)c1 (stereo not given) is ___
stdout: active

stdin: Fill in: this test's call for Oc1c(CN2CCCC2)cc(COCc2ccccc2)c2cccnc12 is ___
stdout: active

stdin: Fill in: this test's call for O=C(Nc1ccccc1N1CCCC1)c1ccc2ccccc2c1 is ___
stdout: inactive

stdin: Fill in: this test's call for Cc1ccc(-n2nnnc2CNC(=O)c2ccccc2C)cc1C is ___
stdout: inactive

stdin: Fill in: this test's call for Fc1cccc(-n2ncc3c2ncn2nc(-c4ccccc4Cl)nc32)c1 is ___
stdout: inactive

stdin: Fill in: this test's call for COc1ccc(Cc2nc3ccc(C(=O)NCc4ccc(OC)cc4OC)cc3o2)cc1 is ___
stdout: inactive

stdin: Fill in: this test's call for CCOC(=O)c1ccccc1NC(=O)c1sc2nc(-c3ccc(F)cc3)cn2c1C is ___
stdout: inactive

stdin: Fill in: this test's call for CN(C)/C=C1\C=C(c2ccccc2)OC1=O is ___
stdout: active

stdin: Fill in: this test's call for CCC(C)(C)n1nnnc1C(c1ccc(OC)c(OC)c1)N1CCN(C(=O)c2ccco2)CC1 (stereo not given) is ___
stdout: inactive

stdin: Fill in: this test's call for Cc1cc(C(=O)COC(=O)CNC(=O)c2ccc(F)cc2)c(C)n1Cc1ccco1 is ___
stdout: inactive

stdin: Fill in: this test's call for COc1ccc(C2CC(=O)N(Cc3ccccc3C)c3c2c(C)nn3-c2nc(C)cc(C)n2)c(OC)c1 (stereo not given) is ___
stdout: inactive

stdin: Fill in: this test's call for CCOC(=O)c1cccc(NS(=O)(=O)c2cn(C)c(C)n2)c1 is ___
stdout: inactive

stdin: Fill in: this test's call for CC(C)(C)n1cnnc1Sc1ccc([N+](=O)[O-])cn1 is ___
stdout: inactive

stdin: Fill in: this test's call for O=C(Nc1ccccc1N1CCCCC1)c1ccc2nccnc2c1 is ___
stdout: active

stdin: Fill in: this test's call for COc1ccccc1NC(=O)C1=C(C)Nc2nc(SCC(=O)c3ccc(C)cc3)nn2C1c1ccccc1C (stereo not given) is ___
stdout: inactive

stdin: Fill in: this test's call for CCc1ccccc1N(C)C(=O)C1CCCN(c2ncnc3onc(-c4ccc(F)cc4)c23)C1 (stereo not given) is ___
stdout: inactive

stdin: Fill in: this test's call for COc1ccccc1/C=C/C1=NC(=C\N(C)C)/C(=O)O1 is ___
stdout: inactive

stdin: Fill in: this test's call for CCCOc1ccc(CN(CCO)CCO)cc1C(=O)OC is ___
stdout: inactive

stdin: Fill in: this test's call for CCOc1ccccc1N(C)C(=O)c1cc2c(s1)-c1ccccc1OC2 is ___
stdout: inactive

stdin: Fill in: this test's call for Cc1ccc2c(=O)c(C(=O)c3ccc(F)cc3)cn(CC(=O)NC3CCCCC3)c2n1 is ___
stdout: inactive

stdin: Fill in: this test's call for O=[N+]([O-])c1ccccc1NCc1ccc(Cl)cc1 is ___
stdout: inactive

stdin: Fill in: this test's call for O=C(Nc1cccc([N+](=O)[O-])c1)c1ccc2c(c1)OCO2 is ___
stdout: inactive

stdin: Fill in: this test's call for Cc1onc(NC(=O)c2ccc([N+](=O)[O-])o2)c1Br is ___
stdout: active

stdin: Fill in: this test's call for CCOc1ccc(CN(CCCl)CCCl)cc1C(=O)OC is ___
stdout: active

stdin: Fill in: this test's call for O=C(CSc1nc2c(c(=O)[nH]1)CN(Cc1ccc(F)cc1)CC2)Nc1ccccc1Cl is ___
stdout: inactive

stdin: Fill in: this test's call for Cc1cc(SCc2c(F)cccc2Cl)nc(=O)[nH]1 is ___
stdout: inactive

stdin: Fill in: this test's call for Cc1cccc(NC(=O)c2ccc(COc3ccccc3[N+](=O)[O-])o2)n1 is ___
stdout: inactive

stdin: Fill in: this test's call for O=C(CSc1nc(-c2cccc(F)c2)[nH]c1-c1ccccc1)Nc1ccc2c(c1)OCO2 is ___
stdout: inactive

stdin: Fill in: this test's call for CCCCCCn1nnc2sc(-c3ccccc3)cc2c1=O is ___
stdout: inactive

stdin: Fill in: this test's call for CCCCNc1ccc(-c2nc(-c3ccncc3)no2)cc1[N+](=O)[O-] is ___
stdout: inactive

stdin: Fill in: this test's call for Cc1ccc(OC(=O)CSc2nnc(-c3cccs3)o2)cc1 is ___
stdout: inactive

stdin: Fill in: this test's call for Cc1ccc(N2CCN(S(=O)(=O)c3ccc(F)cc3)CC2)c(C)c1 is ___
stdout: inactive

stdin: Fill in: this test's call for CC(C)c1ccc(OCC(=O)N(Cc2ccc(N(C)C)cc2)C2CCS(=O)(=O)C2)cc1 (stereo not given) is ___
stdout: inactive
